Please respond with reported MIC for every item in the list.
Test system: Pseudomonas aeruginosa BA17
Test: MIC, agar diffusion, Pseudomonas aeruginosa BA17
Format: cell-based
Conditions: read-out: in vitro activities MIC
Source text: In vitro investigations have shown a relatively high potency of compounds of the invention against all bacteria including gram-positive and gram-negative strains (Staphylococci, Streptococci, Corynebacteriae, Mycobacteriae, Proteus, Propionibacterium, Pseudomonas, Neisseriae, E. coli) and fungal strains (Candida and Aspergillus). […] In addition, the studies of post-antibiotic effects point towards a strong bactericidal effect of the compounds of the invention. […]
Answers are plain numbers, in µg/mL.

These recorded examples may help you get a feel for the data.
COMPOUND	UNIT_ANNOTATION	REPORTED_VALUE
CC(=O)O[C@H]1C[C@@]2(C)C(C[C@@H](O)C3[C@@]4(C)CC[C@@H](O)[C@@H](C)C4CC[C@@]32C)[C@@H]1[C@H](CCCC(C)C)C(=O)NCCCCNCCCNCCCCN (some centres unmarked) [Compound 123]	µg/mL	16
CC(=O)O[C@H]1C[C@@]2(C)C(CCC3[C@@]4(C)CC[C@@H](O)[C@@H](C)C4CC[C@@]32C)[C@@H]1[C@H](CCCC(C)C)C(=O)NCCNCCCNCCN (some centres unmarked) [Compound 133]	µg/mL	16
CC(=O)O[C@H]1C[C@@]2(C)C(CCC3[C@@]4(C)CC[C@@H](O)[C@@H](C)C4CC[C@@]32C)[C@@H]1[C@H](CCCC(C)C)C(=O)NCCCNCCCN (some centres unmarked) [Compound 131]	µg/mL	4

Consider the additional compound presented here.
Exam item: What value of MIC has been recorded for this entry: CC(=O)O[C@H]1C[C@@]2(C)C(C[C@@H](O)C3[C@@]4(C)CC[C@@H](OC(C)=O)[C@@H](C)C4CC[C@@]32C)[C@@H]1[C@H](CCCC(C)C)C(=O)NCCCNCCCCNCCCN (some centres unmarked) [Compound 173]
Marked response: 4

###

System: Pseudomonas aeruginosa BA17
Experiment: MIC, agar diffusion, Pseudomonas aeruginosa BA17
Type: cell-based
Settings: read-out: in vitro activities MIC
Text: In vitro investigations have shown a relatively high potency of compounds of the invention against all bacteria including gram-positive and gram-negative strains (Staphylococci, Streptococci, Corynebacteriae, Mycobacteriae, Proteus, Propionibacterium, Pseudomonas, Neisseriae, E. coli) and fungal strains (Candida and Aspergillus). […] In addition, the studies of post-antibiotic effects point towards a strong bactericidal effect of the compounds of the invention. […]
ATTRIBUTE_MEASURED: MIC (mg/L)
Numbers only, in mg/L.

Use the examples below as a reference point.
COMPOUND	UNIT_ANNOTATION	REPORTED_VALUE
CC(=O)O[C@H]1C[C@@]2(C)C(C[C@@H](O)C3[C@@]4(C)CC[C@@H](OC(C)=O)[C@@H](C)C4CC[C@@]32C)[C@@H]1[C@H](CCCC(C)C)C(=O)NCCCNCCCNCCCN (stereo partly drawn) [Compound 172]	mg/L	4
CC(=O)O[C@H]1C[C@@]2(C)C(C[C@@H](O)C3[C@@]4(C)CC[C@@H](O)[C@@H](C)C4CC[C@@]32C)[C@@H]1[C@H](CCCC(C)C)C(=O)NCCCNCCCCNCCCN (stereo partly drawn) [Compound 125]	mg/L	16

Field: next compound
Exam item: Quick check: MIC of CC(=O)O[C@H]1C[C@@]2(C)C(CCC3[C@@]4(C)CC[C@@H](OS(=O)(=O)O)[C@@H](C)C4CC[C@@]32C)[C@@H]1[C@H](CCCC(C)C)C(=O)NCCCNCCCNCCCN (stereo partly drawn) [Compound 180] ?
Marked response: 64
